Hi there, I'd appreciate the recorded shrunken log2 fold change for every entry that follows.
# System: Escherichia coli TOP10;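 note: peptides expressed intracellularly from a pBAD plasmid library in pooled LB shake-flask culture, induced with 0.3% L-arabinose, DNA abundance read by NGS, three biological replicates, DESeq2 with apeglm shrinkage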
# Assay procedure: shrunken log2 fold change of peptide-encoding DNA abundance (4.5 h post-induction vs induction); higher = less antimicrobial activity (less host growth inhibition)
# Condition label: time post-induction: 4.5 h; library: site-saturation at positions 5, 18, 19, 20
A bare number is all that is needed in reply.

Documented shrunken log2 fold change of RRIRDRPPRLPRPRPRPEYYPRP : -0.00627

Documented shrunken log2 fold change of RRIRPRPPRLPRPRPRPSMIPRP : -0.547

Documented shrunken log2 fold change of RRIRVRPPRLPRPRPRPQNKPRP : -0.497

Documented shrunken log2 fold change of RRIRARPPRLPRPRPRPDLDPRP : 0.515

Documented shrunken log2 fold change of RRIRGRPPRLPRPRPRPNDIPRP : -0.528

Documented shrunken log2 fold change of RRIRERPPRLPRPRPRPMKHPRP : -0.794

Documented shrunken log2 fold change of RRIRNRPPRLPRPRPRPLTNPRP : 0.00172

Documented shrunken log2 fold change of RRIRARPPRLPRPRPRPQFAPRP : 0.402

Documented shrunken log2 fold change of RRIRMRPPRLPRPRPRPSWYPRP : -0.506

Documented shrunken log2 fold change of RRIRFRPPRLPRPRPRPIYTPRP : -0.424

Documented shrunken log2 fold change of RRIRHRPPRLPRPRPRPVYSPRP : -0.0167

Documented shrunken log2 fold change of RRIRKRPPRLPRPRPRPPLHPRP : 0.694

Documented shrunken log2 fold change of RRIRKRPPRLPRPRPRPFCFPRP : 1.24

Documented shrunken log2 fold change of RRIRQRPPRLPRPRPRPPYWPRP : 0.0656

Documented shrunken log2 fold change of RRIRWRPPRLPRPRPRPLFNPRP : -0.711

Documented shrunken log2 fold change of RRIRLRPPRLPRPRPRPRTVPRP : 1.24

Documented shrunken log2 fold change of RRIRWRPPRLPRPRPRPNNQPRP : -0.494

Documented shrunken log2 fold change of RRIRFRPPRLPRPRPRPLAIPRP : -0.0726

Documented shrunken log2 fold change of RRIRMRPPRLPRPRPRPANGPRP : 0.094

Documented shrunken log2 fold change of RRIRFRPPRLPRPRPRPCDMPRP : -0.00291

Documented shrunken log2 fold change of RRIRPRPPRLPRPRPRPLVFPRP : 0.257

Documented shrunken log2 fold change of RRIRIRPPRLPRPRPRPISTPRP : -1.54

Documented shrunken log2 fold change of RRIRMRPPRLPRPRPRPAHPPRP : 0.296

Documented shrunken log2 fold change of RRIRGRPPRLPRPRPRPCYGPRP : -0.277

Documented shrunken log2 fold change of RRIRPRPPRLPRPRPRPNHYPRP : -0.576

Documented shrunken log2 fold change of RRIRNRPPRLPRPRPRPYGIPRP : -0.00992

Documented shrunken log2 fold change of RRIRYRPPRLPRPRPRPGHPPRP : -0.0687

Documented shrunken log2 fold change of RRIRWRPPRLPRPRPRPRQGPRP : 0.582

Documented shrunken log2 fold change of RRIRTRPPRLPRPRPRPTTYPRP : -0.441

Documented shrunken log2 fold change of RRIRTRPPRLPRPRPRPFAQPRP : -0.178

Documented shrunken log2 fold change of RRIRIRPPRLPRPRPRPIKIPRP : -0.0548

Documented shrunken log2 fold change of RRIRLRPPRLPRPRPRPFHQPRP : -1

Documented shrunken log2 fold change of RRIRFRPPRLPRPRPRPAKNPRP : -0.0212

Documented shrunken log2 fold change of RRIRARPPRLPRPRPRPPITPRP : 0.261

Documented shrunken log2 fold change of RRIRRRPPRLPRPRPRPCRLPRP : 0.144

Documented shrunken log2 fold change of RRIRWRPPRLPRPRPRPNHNPRP : -0.681

Documented shrunken log2 fold change of RRIRHRPPRLPRPRPRPWIFPRP : -0.332

Documented shrunken log2 fold change of RRIRERPPRLPRPRPRPFGYPRP : -0.0787

Documented shrunken log2 fold change of RRIRWRPPRLPRPRPRPLYMPRP : -0.684

Documented shrunken log2 fold change of RRIRGRPPRLPRPRPRPEYNPRP : 0.643

Documented shrunken log2 fold change of RRIRPRPPRLPRPRPRPMMSPRP : 0.081

Documented shrunken log2 fold change of RRIRYRPPRLPRPRPRPIQHPRP : -0.89

Documented shrunken log2 fold change of RRIRMRPPRLPRPRPRPLASPRP : 1.34

Documented shrunken log2 fold change of RRIRLRPPRLPRPRPRPVWIPRP : 0.0148

Documented shrunken log2 fold change of RRIRLRPPRLPRPRPRPNCTPRP : -0.24

Documented shrunken log2 fold change of RRIRMRPPRLPRPRPRPDGPPRP : 0.0285

Documented shrunken log2 fold change of RRIRGRPPRLPRPRPRPQMPPRP : 0.225

Documented shrunken log2 fold change of RRIRCRPPRLPRPRPRPFEEPRP : -0.0957

Documented shrunken log2 fold change of RRIRVRPPRLPRPRPRPSMDPRP : 2.34

Documented shrunken log2 fold change of RRIRCRPPRLPRPRPRPPPSPRP : 1.61

Documented shrunken log2 fold change of RRIRCRPPRLPRPRPRPGTLPRP : -0.237

Documented shrunken log2 fold change of RRIRSRPPRLPRPRPRPRYAPRP : -0.0842

Documented shrunken log2 fold change of RRIRNRPPRLPRPRPRPPSGPRP : -0.0646

Documented shrunken log2 fold change of RRIRSRPPRLPRPRPRPKISPRP : 0.0778

Documented shrunken log2 fold change of RRIRSRPPRLPRPRPRPLMMPRP : -0.0355

Documented shrunken log2 fold change of RRIRIRPPRLPRPRPRPACAPRP : -0.149

Documented shrunken log2 fold change of RRIRPRPPRLPRPRPRPHQMPRP : 0.0123
